Every entry's value here was drawn from patent US12064426B2.

STUDY_SYSTEM: Recombinant ROCK2 (amino acids 5-554) (Homo sapiens, UniProt O75116)
Construct: ROCK2 (amino acids 5-554); by word order, ROCK2 from SignalChem
Sequence (O75116 5-554): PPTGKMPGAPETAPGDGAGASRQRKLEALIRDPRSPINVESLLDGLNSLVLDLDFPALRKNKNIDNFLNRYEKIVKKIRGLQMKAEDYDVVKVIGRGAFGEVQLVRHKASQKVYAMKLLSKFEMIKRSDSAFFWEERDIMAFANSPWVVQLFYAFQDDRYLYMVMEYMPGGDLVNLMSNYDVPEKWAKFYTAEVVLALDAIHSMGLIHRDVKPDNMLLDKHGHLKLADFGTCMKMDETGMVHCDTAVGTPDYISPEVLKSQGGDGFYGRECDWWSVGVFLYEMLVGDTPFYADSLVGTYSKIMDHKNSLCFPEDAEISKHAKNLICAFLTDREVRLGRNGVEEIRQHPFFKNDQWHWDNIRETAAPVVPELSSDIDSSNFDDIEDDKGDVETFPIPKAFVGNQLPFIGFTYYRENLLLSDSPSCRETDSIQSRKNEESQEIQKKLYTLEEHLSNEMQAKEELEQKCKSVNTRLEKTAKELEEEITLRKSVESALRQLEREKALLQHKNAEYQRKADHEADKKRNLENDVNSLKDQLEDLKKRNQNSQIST
EXPERIMENT_NOTES: ROCK inhibition assay, LANCE Ultra TR-FRET kinase assay (ROCK2)
CONDITION_SUMMARY: 4 μM ATP, 50 nM ULight-CREBtide substrate
pIC50: −log10 of the molar value.
ATTRIBUTE_MEASURED: pIC50

MOLECULE	STUDY_SYSTEM	pIC50
Cn1nccc1-c1ccc2c(=O)n(Cc3cccc(C(=O)N[C@H]4C[C@H](O)C4)c3)cnc2c1	Recombinant ROCK2 (amino acids 5-554) (Homo sapiens, UniProt O75116)	> 8.00
Cn1nccc1-c1ccc2c(=O)n(Cc3cc(F)cc(C(=O)N[C@H]4CC[C@H](O)CC4)c3)ccc2c1	Recombinant ROCK2 (amino acids 5-554) (Homo sapiens, UniProt O75116)	7.00 to 8.00
Cc1n[nH]cc1-c1ccc2c(=O)n(Cc3cccc(O)c3)ccc2c1	Recombinant ROCK2 (amino acids 5-554) (Homo sapiens, UniProt O75116)	7.00 to 8.00

Reported pIC50 of Cc1nocc1-c1ccc2c(=O)n(Cc3cccc(C(=O)NCC4COC4)c3)cnc2c1 : > 8.00

Sample CC(=O)Nc1cccc(Cn2ccc3cc(-c4c[nH]nc4C(F)(F)F)ccc3c2=O)c1 ; pIC50 observed: 7.00 to 8.00

So for Cc1nocc1-c1ccc2c(=O)n(Cc3cccc(C(=O)NCc4ccccc4)c3)cc(C(C)O)c2c1 (centres unmarked) , the logged pIC50 turned out to be > 8.00

The recorded pIC50 for entry CN1CCC(NC(=O)c2cccc(Cn3ccc4cc(-c5c[nH]nc5C(F)(F)F)ccc4c3=O)c2)CC1 equals > 8.00

The molecule identified as CNC(=O)c1cccc(Cn2ccc3cc(-c4cc[nH]c4C)ncc3c2=O)c1 registered its pIC50 at > 8.00
